meta.source: ChEMBL document CHEMBL5252617

assay-text: Half life in mouse at 1 mg/kg, iv
Type: ADME, organism-based
assay-context: in vivo
readout-type: half-life (h)
Numbers only, in h.

Per the record, `[2H]C([2H])([2H])NC(=O)c1nnc(NC(=O)C2CC2)cc1Nc1cccc(C(=O)Nc2ccc(-c3ncn(C4CC4)n3)cc2)c1OC` has half-life of 1.52

---

study-target: CYP2C19 (Homo sapiens, UniProt P33261)
Sequence (P33261 whole entry): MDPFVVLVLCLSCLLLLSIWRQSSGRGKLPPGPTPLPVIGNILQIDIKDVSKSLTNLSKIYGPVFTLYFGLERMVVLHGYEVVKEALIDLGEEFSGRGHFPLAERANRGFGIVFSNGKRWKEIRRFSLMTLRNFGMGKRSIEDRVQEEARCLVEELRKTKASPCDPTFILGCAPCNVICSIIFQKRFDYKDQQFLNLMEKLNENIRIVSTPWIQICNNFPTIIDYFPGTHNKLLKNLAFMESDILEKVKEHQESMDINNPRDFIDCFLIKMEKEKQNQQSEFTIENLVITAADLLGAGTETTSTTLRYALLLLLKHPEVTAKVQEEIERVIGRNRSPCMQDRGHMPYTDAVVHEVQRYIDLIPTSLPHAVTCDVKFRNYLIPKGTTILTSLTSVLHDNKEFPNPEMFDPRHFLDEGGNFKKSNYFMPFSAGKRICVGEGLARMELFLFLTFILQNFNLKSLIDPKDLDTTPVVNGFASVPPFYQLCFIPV
assay-text: Inhibition of CYP2C19 (unknown origin) at 1 uM relative to control
Format: ADME
readout-type: inhibition at 1 µM
Answer by giving the amount and then stating its unit.

Summary line: `[2H]C([2H])([2H])NC(=O)c1nnc(NC(=O)C2CC2)cc1Nc1cccc(C(=O)Nc2ccc(-c3ncn(C4CC4)n3)cc2)c1OC` , CYP2C19 (Homo sapiens, UniProt P33261), reported inhibition at 1 µM = -5.42%

---

study-target: CYP2D6 (Homo sapiens)
Sequence (P10635 whole entry): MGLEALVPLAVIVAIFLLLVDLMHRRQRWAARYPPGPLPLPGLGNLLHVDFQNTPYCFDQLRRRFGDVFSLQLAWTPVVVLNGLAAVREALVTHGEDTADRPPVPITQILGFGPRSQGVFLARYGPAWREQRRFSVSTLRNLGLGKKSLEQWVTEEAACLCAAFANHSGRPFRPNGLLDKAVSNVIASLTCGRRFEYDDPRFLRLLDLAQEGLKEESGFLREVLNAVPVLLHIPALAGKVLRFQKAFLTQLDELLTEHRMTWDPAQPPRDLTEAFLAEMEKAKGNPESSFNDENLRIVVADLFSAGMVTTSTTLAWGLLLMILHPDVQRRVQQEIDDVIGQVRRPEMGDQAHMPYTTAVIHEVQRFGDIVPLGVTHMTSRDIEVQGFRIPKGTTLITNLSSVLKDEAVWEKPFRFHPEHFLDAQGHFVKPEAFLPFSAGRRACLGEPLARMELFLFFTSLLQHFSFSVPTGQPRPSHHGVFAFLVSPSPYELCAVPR
assay-text: Inhibition of CYP2D6 (unknown origin) at 1 uM relative to control
Type: ADME
readout-type: inhibition at 1 µM (%)
Give bare numbers, in %.

Per the record, `[2H]C([2H])([2H])NC(=O)c1nnc(NC(=O)C2CC2)cc1Nc1cccc(C(=O)Nc2ccc(-c3ncn(C4CC4)n3)cc2)c1OC` has inhibition at 1 µM of -9

---

study-target: JAK3/JAK1 (Homo sapiens, UniProt P23458+P52333)
assay-text: Inhibition of JAK1/3 dependent IL-2 stimulated STAT5 phosphorylation in CD3-positive T cells (unknown origin)
readout-type: pIC50
Answers are plain numbers, as −log10 of the molar value.

Per the record, `[2H]C([2H])([2H])NC(=O)c1nnc(NC(=O)C2CC2)cc1Nc1cccc(C(=O)Nc2ccc(-c3ncn(C4CC4)n3)cc2)c1OC` has pIC50 of 6.01

---

study-target: Non-receptor tyrosine-protein kinase TYK2 (Homo sapiens, UniProt P29597)
Sequence (P29597 whole entry, the tested form may be a part): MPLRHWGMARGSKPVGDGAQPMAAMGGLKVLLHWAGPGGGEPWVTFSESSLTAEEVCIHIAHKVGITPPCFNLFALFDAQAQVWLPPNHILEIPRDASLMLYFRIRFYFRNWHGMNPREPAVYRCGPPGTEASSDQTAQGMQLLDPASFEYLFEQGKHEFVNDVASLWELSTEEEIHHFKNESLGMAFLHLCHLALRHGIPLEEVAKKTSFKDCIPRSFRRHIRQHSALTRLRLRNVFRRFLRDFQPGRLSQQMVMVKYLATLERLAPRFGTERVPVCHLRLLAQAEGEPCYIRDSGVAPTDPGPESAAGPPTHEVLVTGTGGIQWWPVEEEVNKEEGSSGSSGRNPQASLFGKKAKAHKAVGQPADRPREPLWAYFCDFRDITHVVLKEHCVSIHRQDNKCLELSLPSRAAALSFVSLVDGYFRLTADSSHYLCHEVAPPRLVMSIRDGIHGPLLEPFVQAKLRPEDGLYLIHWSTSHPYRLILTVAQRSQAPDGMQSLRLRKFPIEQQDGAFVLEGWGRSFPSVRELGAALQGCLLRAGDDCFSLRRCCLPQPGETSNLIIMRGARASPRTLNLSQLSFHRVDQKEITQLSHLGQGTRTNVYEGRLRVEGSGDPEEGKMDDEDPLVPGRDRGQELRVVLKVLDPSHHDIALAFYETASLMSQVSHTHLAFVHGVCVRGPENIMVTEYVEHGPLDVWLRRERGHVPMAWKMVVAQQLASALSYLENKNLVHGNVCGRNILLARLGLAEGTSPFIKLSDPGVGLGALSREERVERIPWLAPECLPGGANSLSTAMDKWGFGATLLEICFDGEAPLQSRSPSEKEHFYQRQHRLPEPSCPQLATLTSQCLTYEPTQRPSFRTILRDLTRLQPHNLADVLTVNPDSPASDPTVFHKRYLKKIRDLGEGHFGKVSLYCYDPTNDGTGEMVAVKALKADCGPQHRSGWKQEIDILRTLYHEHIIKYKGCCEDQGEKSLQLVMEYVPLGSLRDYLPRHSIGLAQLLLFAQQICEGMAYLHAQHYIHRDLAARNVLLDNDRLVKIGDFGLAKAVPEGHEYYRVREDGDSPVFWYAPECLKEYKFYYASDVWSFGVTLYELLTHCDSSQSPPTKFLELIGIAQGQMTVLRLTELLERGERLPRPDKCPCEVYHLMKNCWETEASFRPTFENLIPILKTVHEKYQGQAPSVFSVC
assay-text: Binding affinity to TYK2 JH2 domain (unknown origin) assessed as melting temperature at 1 uM by thermal shift assay
assay-context: tested as the 2H-labelled form
readout-type: Tm (°C)
Give bare numbers, in °C.

See these solved cases before continuing.
molecule	study-target	Tm (°C)
CNC(=O)c1nnc(NC(=O)C2CC2)cc1Nc1cccc(C(=O)Nc2ccc(C3CCCNC3=O)cc2)c1OC (centres undefined)	Non-receptor tyrosine-protein kinase TYK2 (Homo sapiens, UniProt P29597)	60.1
CNC(=O)c1nnc(NC(=O)C2CC2)cc1Nc1cccc(C(=O)Nc2ccc(N3CCCCS3(=O)=O)cc2)c1OC	Non-receptor tyrosine-protein kinase TYK2 (Homo sapiens, UniProt P29597)	58.7
CNC(=O)c1nnc(Nc2ccccn2)cc1Nc1cccc(C(=O)Nc2ccc(N3CCCCC3=O)cc2)c1OC	Non-receptor tyrosine-protein kinase TYK2 (Homo sapiens, UniProt P29597)	64

Per the record, `CNC(=O)c1nnc(NC(=O)C2CC2)cc1Nc1cccc(C(=O)Nc2ccc(-c3ncn(C4CC4)n3)cc2)c1OC` has Tm of 57

---

study-target: hERG (KCNH2) (Homo sapiens, UniProt Q12809)
Sequence (Q12809 whole entry): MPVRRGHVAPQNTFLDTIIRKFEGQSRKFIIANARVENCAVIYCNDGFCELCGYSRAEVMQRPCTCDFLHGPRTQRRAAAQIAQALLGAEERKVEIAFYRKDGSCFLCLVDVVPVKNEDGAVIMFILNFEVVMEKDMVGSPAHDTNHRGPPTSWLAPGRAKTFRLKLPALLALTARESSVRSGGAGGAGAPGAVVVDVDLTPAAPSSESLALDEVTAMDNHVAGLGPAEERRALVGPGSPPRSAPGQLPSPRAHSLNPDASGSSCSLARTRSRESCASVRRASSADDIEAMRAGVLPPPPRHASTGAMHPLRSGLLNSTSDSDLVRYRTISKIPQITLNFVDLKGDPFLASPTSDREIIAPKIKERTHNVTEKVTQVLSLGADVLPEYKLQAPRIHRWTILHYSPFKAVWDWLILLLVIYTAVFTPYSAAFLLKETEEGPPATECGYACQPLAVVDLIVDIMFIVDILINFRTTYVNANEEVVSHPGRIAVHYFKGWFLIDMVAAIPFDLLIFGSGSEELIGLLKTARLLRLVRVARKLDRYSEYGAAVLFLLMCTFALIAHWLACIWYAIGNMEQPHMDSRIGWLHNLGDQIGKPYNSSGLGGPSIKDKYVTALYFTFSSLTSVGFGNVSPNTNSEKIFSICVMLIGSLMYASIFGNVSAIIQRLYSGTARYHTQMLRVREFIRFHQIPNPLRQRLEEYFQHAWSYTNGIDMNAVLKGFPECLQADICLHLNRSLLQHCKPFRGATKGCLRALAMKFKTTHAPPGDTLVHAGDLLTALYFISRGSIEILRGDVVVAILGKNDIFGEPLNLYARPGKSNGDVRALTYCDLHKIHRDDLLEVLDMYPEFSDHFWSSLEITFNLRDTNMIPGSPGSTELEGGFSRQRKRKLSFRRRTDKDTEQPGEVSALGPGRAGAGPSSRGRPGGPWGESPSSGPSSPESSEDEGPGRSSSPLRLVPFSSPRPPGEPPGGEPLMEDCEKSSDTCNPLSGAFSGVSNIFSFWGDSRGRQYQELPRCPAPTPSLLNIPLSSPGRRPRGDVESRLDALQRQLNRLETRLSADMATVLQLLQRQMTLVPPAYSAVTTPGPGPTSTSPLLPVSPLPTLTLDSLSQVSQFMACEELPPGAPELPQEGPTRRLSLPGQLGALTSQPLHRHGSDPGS
assay-text: Inhibition of human ERG at 10 uM by patch clamp method relative to control
Format: toxicity
readout-type: inhibition at 10 µM (%)
Numbers only, in %.

Per the record, `[2H]C([2H])([2H])NC(=O)c1nnc(NC(=O)C2CC2)cc1Nc1cccc(C(=O)Nc2ccc(-c3ncn(C4CC4)n3)cc2)c1OC` has inhibition at 10 µM of 27.8
